Tested on: T-47D breast
Assay name: NCI tumour cell line growth inhibition, 48 h
Readout: TGI

Line notation	Experimental system	Readout	Val
Cc1nnc2sc(NN)nn12	T-47D breast	TGI	> 100 µM
Cc1ncc2c(=O)c3c(oc2n1)c1ccccc1n3Cc1ccccc1	T-47D breast	TGI	> 100 µM

Lab note: next compound to report on.
Prompt: Param item = O=[N+]([O-])c1ccccc1N/N=C\c1c[nH]c2ccccc12 ; retrieve measured TGI.
Completion: > 100 µM

====

System: NCI/ADR-RES ovarian
Assay name: NCI tumour cell line growth inhibition, 48 h
Could you please report measured TGI for the items listed next?

Recorded results for 3 compounds are shown here.
Compound	TGI
CCN1C(=O)C(C)S/C1=N\NC(=O)CSc1nc2ccccc2c(=O)n1CC (stereo unspecified)	> 100 µM
O=C1Nc2c(C(F)(F)F)cccc2[C@@]1(c1ccc(O)cc1)c1ccc(OC(F)(F)F)cc1	< 0.0105 µM
CC1CC[C@@]2(OC1)OC1CC3C4CCC5C[C@@H](OC6OC(CO)C(OC7OC(CO)C(O)C(OC8OC(CO)C(O)C(OC9OC(CO)C(O)C(O)C9O)C8O)C7OC7OC(CO)C(O)C(O)C7O)C(O)C6O)[C@H](O)C[C@]5(C)C4CC[C@]3(C)C1[C@@H]2C (stereo partly specified)	> 80.5 µM

Here are 4 compounds. What values of TGI were reported for them?
1. Cl.Fc1c[c-]c(-c2ccccn2)c(F)c1.[Pt].c1ccc(P(c2ccccc2)C([PH+](c2ccccc2)c2ccccc2)[PH+](c2ccccc2)c2ccccc2)cc1
2. CN(NC(=O)c1cccs1)C1=NCCCCN1
3. CCCCC(Sc1cc(Cl)c(C)cc1S(=O)(=O)Nc1n[nH]c(N)n1)C(=O)OC (stereo unspecified)
4. CC1=CC[C@@]2(CO)[C@@H]([C@@H]1C)[C@H]1CC[C@@H]3[C@@]4(C)CC[C@H](O)C(C)(C)[C@@H]4CC[C@@]3(C)[C@]1(C)C[C@@H]2O

Completion:
> 100 µM
> 100 µM
> 10 µM
> 100 µM

Here are 5 compounds. What values of TGI were reported for them?
1. O=C(CSc1nc2[nH]ncc2c(=O)[nH]1)c1ccc(Cl)cc1
2. Cc1ccccc1-n1ncc(C(=O)c2ccccc2)c1N
3. CC(=O)NC(CCC(=O)C=[N+]=N)C(=O)O (stereo unspecified)
4. CCC(=O)c1ccc2[nH]c3c(C)c4c(=O)cc(C)[nH]c4c(C)c3c2c1
5. N/N=C(\C(=O)Nc1ccc(Cl)cc1Cl)C(c1cnc2ccccc2n1)[N+](=O)[O-] (stereo unspecified)

Completion:
> 100 µM
> 25 µM
> 100 µM
> 100 µM
> 100 µM

Here are 4 compounds. What values of TGI were reported for them?
1. Cc1nnc2sc(NN)nn12
2. O=c1oc2ccccc2c(O)c1/C=N/C(=S)NCCc1ccccc1
3. COc1cc(C2C(C#N)=C(N)OC3=C2CCS(=O)(=O)c2ccc(C)cc23)cc(OC)c1OC (stereo unspecified)
4. O=C(O)c1ccc(NC(NC(=O)C(C(F)(F)F)C(F)(F)F)(C(F)(F)F)C(F)(F)F)cc1

Completion:
1. > 100 µM
2. > 100 µM
3. > 100 µM
4. > 100 µM
